- target_under_test: AP-2 complex subunit beta (Homo sapiens) (UniProt P63010)
- Sequence (P63010 whole entry, looked up, one chain of several): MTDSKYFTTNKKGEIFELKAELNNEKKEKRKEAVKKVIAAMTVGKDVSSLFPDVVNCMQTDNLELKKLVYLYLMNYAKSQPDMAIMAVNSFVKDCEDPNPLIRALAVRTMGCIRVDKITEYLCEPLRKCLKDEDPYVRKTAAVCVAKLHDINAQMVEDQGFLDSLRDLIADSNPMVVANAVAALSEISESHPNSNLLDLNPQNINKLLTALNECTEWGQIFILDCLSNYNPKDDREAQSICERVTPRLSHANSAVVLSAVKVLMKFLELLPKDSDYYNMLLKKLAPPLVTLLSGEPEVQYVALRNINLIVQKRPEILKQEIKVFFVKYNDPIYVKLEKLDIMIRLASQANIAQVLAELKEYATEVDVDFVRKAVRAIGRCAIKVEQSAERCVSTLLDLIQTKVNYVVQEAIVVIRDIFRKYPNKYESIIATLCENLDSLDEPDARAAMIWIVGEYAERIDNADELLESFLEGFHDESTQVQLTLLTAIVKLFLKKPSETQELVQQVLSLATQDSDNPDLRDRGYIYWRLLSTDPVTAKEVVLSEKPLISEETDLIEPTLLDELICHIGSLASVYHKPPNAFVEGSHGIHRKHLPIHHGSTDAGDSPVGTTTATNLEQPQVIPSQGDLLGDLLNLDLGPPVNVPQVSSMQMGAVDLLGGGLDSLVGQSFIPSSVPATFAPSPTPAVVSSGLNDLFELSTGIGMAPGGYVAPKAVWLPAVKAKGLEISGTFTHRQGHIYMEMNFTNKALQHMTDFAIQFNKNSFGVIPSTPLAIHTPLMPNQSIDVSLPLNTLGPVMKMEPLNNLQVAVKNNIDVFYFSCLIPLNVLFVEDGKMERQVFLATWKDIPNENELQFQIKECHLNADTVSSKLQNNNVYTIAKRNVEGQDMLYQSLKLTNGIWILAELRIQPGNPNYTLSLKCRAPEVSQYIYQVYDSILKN
- assay_name: beta-arrestin/AP2 interaction blockers – biochemical, validation set, GST-AP2 beads, flow cytometry, pilot screen (AID 504541);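 also: AP2 carries R879A mutation and is captured from E. coli lysate; bead-bound FITC arrestin peptide fluorescence measuring arrestin peptide binding to AP2; 0% = DMSO wells and 100% = excess unlabeled arrestin peptide control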
- setup_conditions: FITC arrestin peptide, at 10 µM, active compounds read high, AP2 beta2 appendage fragment, R879A mutant
test_readout: inhibition (%)
Answers are plain numbers, in %.

Solved entries (count: 6):
Please indicate recorded inhibition of NS(=O)(=O)c1cc2c(cc1Cl)NC(C1C[C@H]3C=C[C@@H]1C3)NS2(=O)=O (stereo partly drawn) measured with AP-2 complex subunit beta (Homo sapiens) (UniProt P63010). 11.5

With AP-2 complex subunit beta (Homo sapiens) (UniProt P63010) as the test system, provide measured inhibition for this compound: CC(=O)NC(Cc1ccccc1)C(=O)OCC(=O)c1ccccc1 (stereo not drawn) 9.32

State recorded inhibition with AP-2 complex subunit beta (Homo sapiens) (UniProt P63010), entry c1ccc(-c2ccc(C(c3ccccc3)n3ccnc3)cc2)cc1 (stereo not drawn) , no comment. -14.1

// fetch inhibition; item: Cc1nnc(NS(=O)(=O)c2ccc(N)cc2)s1 ; system: AP-2 complex subunit beta (Homo sapiens) (UniProt P63010) 2.68

Answer with inhibition of O=C1ON=C(c2ccc(Cl)cc2)/C1=C/c1ccc(O)cc1 measured for AP-2 complex subunit beta (Homo sapiens) (UniProt P63010). -8.88

State, for AP-2 complex subunit beta (Homo sapiens) (UniProt P63010), measured inhibition of the compound listed here: COC(=O)CN1C(=S)N(c2ccc(F)cc2)C(=O)C1CC(=O)Nc1ccccc1 (stereo not drawn) 0.21

Required: inhibition, one value per compound below.
1. CC(=O)N1CCN2C(=O)C1CCCC(=O)c1cc(C(C)C)ccc12 (stereo not drawn)
2. NC(=O)[C@@H]1[C@@H]2C(=O)N(c3ccc(F)cc3)C(=O)[C@@H]2[C@H]2C=Cc3ccccc3N21
3. CC(C)CC(=O)NC(NC(=O)CC(C)C)c1cccc([N+](=O)[O-])c1
4. CC(=O)Nc1ccccc1O

[-5.05, -25.9, 7.92, 0.05]

Please report inhibition for every entry that follows.
1. C=CCNC(=O)c1ccc(-c2cccc([N+](=O)[O-])c2)o1
2. COc1cccc2cc(-c3ccccc3)c(=O)oc12
3. O=C(COc1ccc2ccc(=O)oc2c1)c1ccccc1

1. -25
2. 10.1
3. 14.3
